Tested on: PC-12
Experiment: Cytoprotective activity against t-BPH-induced cell damage in rat PC12 cells assessed as cell viability at 1.6 uM
Format: functional, cell-based
Activity calls are given as the source filed them. The rule behind the calls is not given here.
QUANTITY MEASURED: Activity

> print(dat)
                                   compound  reported.measurement
1  CC1=C(O)/C(=N/O)C=C2C1=CC=C1[C@@]2(C)CC[C@@]2(C)[C@@H]3C[C@](C)(C(=O)O)CC[C@]3(C)CC[C@]12C                Active
2  CCCOC(=O)[C@]1(C)CC[C@]2(C)CC[C@]3(C)C4=CC=C5C(=CC(=O)C(O)=C5C)[C@]4(C)CC[C@@]3(C)[C@@H]2C1                Active
3  CC1=C(O)C(=O)C=C2C1=CC=C1[C@@]2(C)CC[C@@]2(C)[C@@H]3C[C@](C)(C(=O)O)CC[C@]3(C)CC[C@]12C                Active
